# TARGET: T1, PUF4 RNA-binding domain (Saccharomyces cerevisiae, UniProt P25339 537-888)
# T1 sequence: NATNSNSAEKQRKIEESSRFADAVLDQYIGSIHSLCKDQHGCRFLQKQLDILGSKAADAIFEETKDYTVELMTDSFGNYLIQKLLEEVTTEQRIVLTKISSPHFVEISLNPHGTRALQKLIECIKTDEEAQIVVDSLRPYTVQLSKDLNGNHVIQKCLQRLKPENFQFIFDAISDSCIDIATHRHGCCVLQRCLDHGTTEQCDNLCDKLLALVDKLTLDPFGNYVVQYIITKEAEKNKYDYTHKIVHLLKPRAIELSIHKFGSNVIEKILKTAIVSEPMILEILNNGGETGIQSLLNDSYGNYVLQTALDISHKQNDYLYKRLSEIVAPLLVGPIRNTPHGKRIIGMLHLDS
# TEST: Mg; RNA-MaP; 20 mM Na-HEPES pH 7.4, 30 mM KOAc, 0.75 mM MgCl2, 0.1% Tween-20, 5% glycerol, 0.1 mg/mL BSA, 2 mM DTT; 25 C; 0.0125-409.6 nM protein
# SETUP_CONDITIONS: tags: N-His6-TEV cleaved; C-SNAP kept, Cy3B-labelled; label: tethered on chip by stalled RNA polymerase
EXPERIMENTAL_ENDPOINT: pKd
One number for each entry, as −log10 of the molar value.

Note to self: pKd recorded for Id_ii_S2_P5E.4_K5.3_C5.2_H5.3_A5.1_F5.1_T5.2_[A12T] (ssRNA) RNA: UUUGAUUAAUAUGAUAUCGUUCUUUCUCUACACUUAUUAUUUUCUUUCUCGAUAUCAUAUUAAUCUUU was 5.65

Note to self: pKd recorded for UCUCUUCGUAUAUUUCUCUU (ssRNA) [Ib_S1_P3E.1_K3.1_C3.1_H3.1_[T1C]_A3.1_F3.1_[A8T]_T3.1] was 6.08

# ---- query binder ----
Note to self: pKd recorded for Id_ii_S2_P3E.4_K3.3_C3.2_[C-2A]_H3.3_A3.1_F3.1_T3.2_[A10C] (ssRNA) RNA: UUUGAUUAAUAUGAUAUCGUUCUUUCUAUACACUAUAUCUUCUUUCUCGAUAUCAUAUUAAUCUUU was 7.93
